Data provenance: ChEMBL document CHEMBL1146164

- test_target: Peroxisome proliferator-activated receptor alpha (Homo sapiens, UniProt Q07869)
- Sequence (Q07869 whole entry): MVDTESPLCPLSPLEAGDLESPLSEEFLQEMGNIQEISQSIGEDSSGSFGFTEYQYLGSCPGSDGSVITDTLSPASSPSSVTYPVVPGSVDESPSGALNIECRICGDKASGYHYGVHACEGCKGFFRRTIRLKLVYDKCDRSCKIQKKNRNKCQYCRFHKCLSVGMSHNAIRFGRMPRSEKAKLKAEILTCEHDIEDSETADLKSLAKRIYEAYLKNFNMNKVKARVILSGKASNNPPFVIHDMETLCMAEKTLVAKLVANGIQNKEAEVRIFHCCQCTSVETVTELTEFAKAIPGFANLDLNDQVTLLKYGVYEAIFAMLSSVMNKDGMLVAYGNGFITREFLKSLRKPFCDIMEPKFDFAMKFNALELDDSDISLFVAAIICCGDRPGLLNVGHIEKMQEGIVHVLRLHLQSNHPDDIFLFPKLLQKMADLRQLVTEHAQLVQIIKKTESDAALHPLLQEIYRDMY
- test_name: Displacement of [3H]2-(4-{2-[3-(2,4-difluoro-phenyl)-1-heptyl-ureido]-ethyl}-phenoxy)-2-methyl-butyric acid from hPPARalpha
For each of the molecules below, state its log10(IC50).
Scale: decimal log of IC50, IC50 in nM.

Cc1oc(-c2ccccc2)nc1CCOc1ccc(CCC(=O)O)c(CNC(=O)OCc2ccccc2)c1 :: 2.64
Cc1oc(-c2ccc(-c3ncccn3)cc2)nc1CCOc1ccc(CCC(=O)O)c(CNC(=O)OC(C)C)c1 :: 4.00
Cc1oc(-c2ccccc2)nc1CCOc1ccc(CCC(=O)O)c(CNS(=O)(=O)Cc2ccccc2)c1 :: 3.53
Cc1oc(-c2ccccc2)nc1CCOc1ccc(CCC(=O)O)c(CNC(=O)Oc2cnccn2)c1 :: 1.72

# return log10(IC50) for each item in the list
1. Cc1sc(N2CCOCC2)nc1CCOc1ccc(CCC(=O)O)c(CNC(=O)OC(C)C)c1
2. Cc1oc(-c2ccccc2)nc1CCOc1ccc(CCC(=O)O)c(CNC(=O)CCc2ccccc2)c1
3. Cc1oc(-c2ccccc2)nc1CCOc1ccc(CCC(=O)O)c(CNC(=O)OC(C)C)c1
4. Cc1oc(-c2ccc(Oc3ccccc3)cc2)nc1CCOc1ccc(CCC(=O)O)c(CNC(=O)OC(C)C)c1
5. Cc1oc(-c2ccc(-c3ccccc3)cc2)nc1CCOc1ccc(CCC(=O)O)c(CNC(=O)OC(C)C)c1

1: 3.17; 2: 3.70; 3: 2.16; 4: 2.71; 5: 3.54
